Source of measurements: ChEMBL document CHEMBL1121363

- Tested on: Calf thymus DNA
- ASSAY: Dimer binding constant for DNA of calf thymus at pH 5.
- Type: nucleic-acid assay
- MEASUREMENT PARAMETERS: Bos taurus
Recorded K app, one value per entry.

LINE NOTATION: COc1ccc2[nH]c3ccc4cc[n+](CCCCCCCCCC[n+]5ccc6ccc7[nH]c8ccc(OC)cc8c7c6c5)cc4c3c2c1.[Br-].[Br-]
K app: 3e+06
--
LINE NOTATION: COc1ccc2[nH]c3ccc4cc[n+](CCN5CCC(CCCC6CCN(CC[n+]7ccc8ccc9[nH]c%10ccc(OC)cc%10c9c8c7)CC6)CC5)cc4c3c2c1
K app: 1e+09
--
LINE NOTATION: [Cl-].[Cl-].c1ccc2c(c1)[nH]c1ccc3cc[n+](CCN4CCC(C5CCN(CC[n+]6ccc7ccc8[nH]c9ccccc9c8c7c6)CC5)CC4)cc3c12
K app: 3e+08
--
LINE NOTATION: COc1ccc2c(c1)c1c3c[n+](CCN4CCC(C5CCN(CC[n+]6ccc7ccc8c(c7c6)c6cc(OC)ccc6n8C)CC5)CC4)ccc3ccc1n2C.[Cl-].[Cl-]
K app: 3e+08
--
LINE NOTATION: COc1ccc2[nH]c3c(C)c4cc[n+](CCN5CCC(C6CCN(CC[n+]7ccc8c(C)c9[nH]c%10ccc(OC)cc%10c9c(C)c8c7)CC6)CC5)cc4c(C)c3c2c1
K app: 2e+08
--
LINE NOTATION: COc1ccc2[nH]c3ccc4c[n+](CCN5CCC(C6CCN(CC[n+]7ccc8c(ccc9[nH]c%10ccc(OC)cc%10c98)c7)CC6)CC5)ccc4c3c2c1.[Cl-].[Cl-]
K app: 5e+08
--
LINE NOTATION: COc1ccc2[nH]c3ccc4cc[n+](CCN(C)CCCCCN(C)CC[n+]5ccc6ccc7[nH]c8ccc(OC)cc8c7c6c5)cc4c3c2c1
K app: 1e+08
--
LINE NOTATION: COc1ccc2c(c1)c1c3cc[n+](CCN4CCC(C5CCN(CC[n+]6ccc7c(ccc8c7c7cc(OC)ccc7n8C)c6)CC5)CC4)cc3ccc1n2C
K app: 5e+08
